System: SB.mhdgc-1
EXPERIMENTAL PROTOCOL: area under the dose-response curve of % viability (trapezoidal, 11 doses) (% viability x log10 concentration); higher = less cytotoxic
MEASUREMENT SETUP: SB.mhdgc-1 (hereditary c.1380delA CDH1 gastric cancer)
PARAMETER: area under the dose-response curve
Answers are plain numbers.

A selection of reference data follows.
COMPOUND: CCC(=O)OCC(=O)[C@@]1(OC(=O)CC)[C@@H](C)C[C@H]2[C@@H]3CCC4=CC(=O)C=C[C@]4(C)[C@@]3(F)[C@@H](O)C[C@@]21C [Betamethasone dipropionate] (top concentration 46.0829 µM)
PARAMETER: area under the dose-response curve
VALUE: 476
--
COMPOUND: COc1cc2ncn(-c3cc(OCc4ccccc4[S+](C)(=O)[O-])c(C#N)s3)c2cc1OC [IKK-3 Inhibitor IX] (top concentration 46.0829 µM)
PARAMETER: area under the dose-response curve
VALUE: 448
--
COMPOUND: CN(CCOc1ccc(CC2SC(=O)NC2=O)cc1)c1ccccn1 (stereo unspecified) [Rosiglitazone] (top concentration 46.0829 µM)
PARAMETER: area under the dose-response curve
VALUE: 586
--
COMPOUND: Cc1cccc(-c2[nH]c(C(C)(C)C)nc2-c2ccc3nccnc3c2)n1 (top concentration 46.0829 µM)
PARAMETER: area under the dose-response curve
VALUE: 530
--
COMPOUND: c1ccc(CCCN2CCN(CCOC(c3ccccc3)c3ccccc3)CC2)cc1 (top concentration 46.0829 µM)
PARAMETER: area under the dose-response curve
VALUE: 430

Then there is this compound:
// area under the dose-response curve lookup, compound = CN\1C(=O)/C(=C(\N=C1N2CCCC[S+]2([O-])=O)C(=O)NCC3=CC=C(F)C=C3)O (top concentration 46.0829 µM) , result: 620

* * *

Test system: SB.msgc-1
EXPERIMENTAL PROTOCOL: AC50 for growth inhibition (viability) (log10 M); higher = less potent
MEASUREMENT SETUP: SB.msgc-1 (sporadic gastric cancer)
Counter-ions that a name gives are not always drawn.
PARAMETER: AC50 for growth inhibition (log10 M)
Numbers only.

A selection of reference data follows.
MOLECULE: O=C1\C=C(/OC2=C1C=CC=C2C3=CC=CC=C3)N4CCOCC4
AC50 for growth inhibition (log10 M): -4.73
//
MOLECULE: Cc1nc(N)sc1-c1ccnc(Nc2ccc(N3CCOCC3)cc2)n1
AC50 for growth inhibition (log10 M): -4.63
//
MOLECULE: O=C(CCCCCCC(=O)Nc1ccccc1)NO
AC50 for growth inhibition (log10 M): -5.58

Then there is this molecule:
// AC50 for growth inhibition (log10 M) lookup, molecule = CN(C)[C@H]\1[C@@H]2C[C@H]3C(=C(O)\[C@]2(O)C(=O)\C(=C1O)C(N)=O)/C(=O)C4=C(O)C=CC=C4[C@@]3(C)O [Tetracycline hydrochloride] , result: -5.18

* * *

System: SB.msgc-1
EXPERIMENTAL PROTOCOL: AC50 for growth inhibition (viability) (log10 M); higher = less potent
MEASUREMENT SETUP: SB.msgc-1 (sporadic gastric cancer)
PARAMETER: AC50 for growth inhibition (log10 M)
Numbers only.

A selection of reference data follows.
COMPOUND: CC(C)(C)NC(=O)[C@H]1CC[C@H]2[C@@H]3CC[C@H]4NC(=O)\C=C/[C@]4(C)[C@H]3CC[C@]12C [Finasteride]
AC50 for growth inhibition (log10 M): -5.78
--
COMPOUND: Cc1c(C(=O)Nc2cccc(C(F)(F)F)c2)cc(-c2ccccc2)n1CCCN1CCOCC1
AC50 for growth inhibition (log10 M): -4.83

Field: AC50 for growth inhibition (log10 M). Fill in for each record below.
1. COc1ccc(/C=C\c2cc(OC)c(OC)c(OC)c2)cc1O [Combretastatin A-4]
2. CC(C)OC(=O)OCOP(=O)(CO[C@H](C)Cn1cnc2c(N)ncnc21)OCOC(=O)OC(C)C.O=C(O)C=CC(=O)O [Tenofovir Disoproxil Fumarate]
3. CC1(C)S[C@H]2[C@H](NC(=O)[C@@H](N)C3=CC=C(O)C=C3)C(=O)[N@]2[C@H]1C(O)=O [Amoxicillin sodium]
4. C[C@]12CC[C@@H]3c4ccc(O)cc4CC[C@H]3[C@@H]1CC[C@@H]2O [Estradiol]
5. Cc1cc(OCCC[S+](C)(=O)[O-])cc(C)c1-c1cccc(COc2ccc3c(c2)OC[C@H]3CC(=O)O)c1 [TAK-875]

a:
1: -5.23; 2: -4.78; 3: -5.08; 4: -4.93; 5: -4.78

Entry source: the supplement of paper PMC5412046
